Ref: patent US20250250357A1

measured on: T1, human MSLN-R3-his protein (human, UniProt Q13421 487-598)
T1 construct: it is put last here; also called human MSLN-R3 protein; hMSLN-R3-his; not shown: His tag
assay text: ELISA on coated antigen, antibody 0.02 nM
Answer 0 if OD450 is under 0.7 OD, and 1 if it is 0.7 OD or more.

Completed entries (count: 5):
S009-F7.33.24 (antibody, human IgG1, kappa, V domains shown, Human-murine chimeric antibody, human IgG1 heavy and kappa light constant regions) VH: QVQLQQPGTELVKPGASVKLSCKASGYTFTSYWMHWVKQRPGQGLEWIGNVNPSNGGSNYNEKFKNKATLTVDKSSSTADMQLNSLTSEDSAVYYCAPHYIGSRPGFAYWGQGTLVTVSG VL: DIVMTQSQKFMSTSVGDRVSVTCKASQNVGTNIAWYQQKPGQSPKALIYSASYRYSGVPDRFTGSGSGTDFTLTITNVQSEDLAEYFCQQYNSYPLTFGGGTKVEIKR ... 1
S009-F7.48.1 (antibody, human IgG1, kappa, V domains shown, Human-murine chimeric antibody, human IgG1 heavy and kappa light constant regions) VH: QVQLQQPGTELVKPGASVKLSCKASGYTFTSYWMHWVKQRPGQGLEWIGNINPSNGGTNNNENFKSKATLTVDTSSSTAYMQLSSLTSEDSAVYYCVRNGYHGYWYFDVWGTGTTVTVSS VL: DIVMTQSQKFMSTSVGDRVSVTCKASQNVGTNVAWYQQQPGQSPKALIYSASYRYSGVPDRFTGSVSGTDFTLTISNVQSEDLAEYFCQQYNSYPLTFGGGTKLEIKR ... 0
S009-F7.61.21 (antibody, human IgG1, kappa, V domains shown, Human-murine chimeric antibody, human IgG1 heavy and kappa light constant regions) VH: DVQLQQSGPELVEPGASVRIPCKAAGHTFTDYNVDWVKQSHGQSLEWIGDVNPNTDGAIYNQKFEGKATLTVDTSSSTAYMELRSLTSEDTAVYFCARRRLGQGGFDSWGQGTTLTVSS VL: QVVLTQSPAIMSASPGEKVTLTCGASSSLISKYLYWYQQKPGSSPKLWIYSTSNLASGVPARFSGSGSGTSYSLTISSMEAEDAASYFCHQWSSYPYTFGGGTKVEIKR ... 0
S009-F7.26.15 (antibody, human IgG1, kappa, V domains shown, Human-murine chimeric antibody, human IgG1 heavy and kappa light constant regions) VH: DVQLQESGPGLVKPSQTVFLTCTVTGISITTGNYRWSWIRQFPGNKLEWIGYIYYTGFITYNPSLTSRTTITRDTPKNQFFLEMKSLTAEDTATYYCARDDYDYDVFAYWGQGTLVTVSA VL: DIQMTQSPASLSASVGETVTITCRASGNIHNYLAWYHQKQGKSPQFLVYKAKTLADGVPSRFSGSGSGTQYSLKINRLQPEDFGSYYCQHFLSIPLTFGAGTKLELKR ... 1
S009-F7.23.19 (antibody, human IgG1, kappa, V domains shown, Human-murine chimeric antibody, human IgG1 heavy and kappa light constant regions) VH: EVKLVESGGGLVQPGGSLSLSCAASGFTFTDYYMSWVRQPPGKALEWLGFIRSKANAYTTEYSASVKGRFTISRDNSQSILYLQMNDLRAEDSATYYCARYYYYGSGYVWYFDVWGTGTTVTVSS VL: DIVMTQSQKFMSTSVGDRVSVTCKASQSVGTNVAWYQQKPGQFPKALIYSASYRYSGVPDRFTGSGSGTDFTLTIINVQSEDLAEYFCQQYNSYPLTFGAGTKLELKR ... 1

Kindly consider the entry below.
Query: Record S009-F7.25.19 (antibody, human IgG1, kappa, V domains shown, Human-murine chimeric antibody, human IgG1 heavy and kappa light constant regions) VH: QVQLQQPGTELVKPGASVKLSCKASGYTFTSYWMHWVKQRPGQGLEWIGNIIPSNGGTKYNEKFKSKATLTVDKSSSTAYMQLSSLTSEDSAVYYCSPHYYGGSPGFAYWGQGTLITVSA VL: DIVMTQSQKFMSTSVGDRVSVICKASQNVGTNVAWYQQKPGQSPKALIYSASYRYSGVPDRFTGSGSGTDFTLTISNVQSEDLAEYFCQQYNSYPLTFGGGTKLEIKR ; criterion: OD450 no lower than 0.7 OD. Met?
Reply: 1
